target of assay: p-Akt3 in WM115 cells (Homo sapiens)
Construct: SureFire assays to detect cellular p-Akt1, p-Akt2 and p-Akt3 levels in WM115 cells (Akt2/3) and LNCaP cells (Akt1); endogenous in cells; host or cells: WM115 (ECACC 91061232), insulin-stimulated
Sequence (Q9Y243 whole entry): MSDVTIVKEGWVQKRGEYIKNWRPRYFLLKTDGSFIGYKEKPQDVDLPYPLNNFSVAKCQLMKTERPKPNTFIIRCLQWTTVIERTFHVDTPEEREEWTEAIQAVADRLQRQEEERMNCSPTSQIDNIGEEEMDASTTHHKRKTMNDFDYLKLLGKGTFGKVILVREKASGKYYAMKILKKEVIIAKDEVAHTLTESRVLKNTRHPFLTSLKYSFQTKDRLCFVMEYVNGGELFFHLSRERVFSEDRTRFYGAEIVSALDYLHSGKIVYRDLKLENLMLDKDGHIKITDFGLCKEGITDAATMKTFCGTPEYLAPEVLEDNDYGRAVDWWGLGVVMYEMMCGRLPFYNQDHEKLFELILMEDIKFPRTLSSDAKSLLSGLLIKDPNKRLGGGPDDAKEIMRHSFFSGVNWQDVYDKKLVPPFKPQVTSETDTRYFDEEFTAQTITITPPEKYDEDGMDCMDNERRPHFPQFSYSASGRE
assay explanation: Phospho-Akt cellular SureFire assay, p-Akt3 in WM115 cells
Format: cell-based
condition info: insulin stimulated, read-out: Biological Assay 2 IC50 (nM) Akt3 WM115
recorded metric: IC50

1. COC(=O)N(C)[C@H]1CC[C@H](CC(=O)Nc2cnc(-c3ccc(C4(N)CCC4)cc3)c(-c3ccsc3)c2)CC1 ... 250 nM
2. CN(C(=O)C(F)F)[C@H]1CC[C@H](CC(=O)Nc2cnc(-c3ccc(C(C)(C)N)cc3)c(-c3ccccc3)c2)CC1 ... 230 nM
3. CC(=O)N(C(C)C)[C@H]1CC[C@H](CC(=O)Nc2cc(-c3ccccc3)c(-c3ccc([C@]4(N)C[C@](C)(O)C4)cc3)nn2)CC1 ... 26 nM
4. COC(=O)N(C)[C@H]1CC[C@H](CC(=O)Nc2cnc(-c3ccc([C@]4(N)C[C@H](F)C4)cc3)c(-c3ccccc3)c2)CC1 ... 100 nM
5. NC1(c2ccc(-c3nnc(NC(=O)C[C@H]4CC[C@H](N5CCOC5=O)CC4)cc3-c3ccccc3)cc2F)CC1 ... 270 nM
6. COCC(=O)N(C)[C@H]1CC[C@H](CC(=O)Nc2cc(-c3ccccc3)c(-c3ccc([C@]4(N)C[C@](C)(O)C4)cc3)cn2)CC1 ... 9 nM

---

// IC50 lookup, one value per entry
target of assay: Akt2 (Homo sapiens, UniProt P31751)
Construct: unspecified tag, removed (detagged) (cleaved yes); purchased SignalChem and Proteros (Akt2); Merck Millipore (PDK1) 14-452 (PDK1); none given for Akt2
assay explanation: Akt activation assay (PDK1-mediated activation, LANCE Ultra crosstide TR-FRET), Akt2
Assay type: biochemical
condition info: read-out: Biological Assay 1 IC50 (nM) Akt2
recorded metric: IC50 (nM)

1) CCC(=O)N(C)[C@H]1CC[C@H](CC(=O)Nc2cnc(-c3ccc([C@]4(N)C[C@](C)(O)C4)cc3)c(-c3ccccc3)c2)CC1 ... 53
2) CC(C)(N)c1ccc(-c2ncc(NC(=O)C[C@H]3CC[C@H](C(=O)N4CCCC4)CC3)cc2-c2ccccc2)cc1 ... 2100
3) CN([C@H]1CC[C@H](CC(=O)Nc2cnc(-c3ccc(C(C)(C)N)cc3)c(-c3ccccc3)c2)CC1)S(C)(=O)=O ... 5100
4) CC(=O)N(C(C)C)[C@H]1CC[C@H](CC(=O)Nc2cc(-c3ccccc3)c(-c3ccc([C@]4(N)C[C@](C)(O)C4)cc3)nn2)CC1 ... 170
5) NC1(c2ccc(-c3ncc(NC(=O)C[C@H]4CC[C@H](N5CCOC5=O)CC4)cc3-c3ccccc3)cc2)CCC1 ... 180

---

// IC50 lookup, one value per entry
target of assay: p-Akt2 in WM115 cells (Homo sapiens)
Construct: SureFire assays to detect cellular p-Akt1, p-Akt2 and p-Akt3 levels in WM115 cells (Akt2/3) and LNCaP cells (Akt1); endogenous in cells; host or cells: WM115 (ECACC 91061232), insulin-stimulated
Sequence (P31751 whole entry): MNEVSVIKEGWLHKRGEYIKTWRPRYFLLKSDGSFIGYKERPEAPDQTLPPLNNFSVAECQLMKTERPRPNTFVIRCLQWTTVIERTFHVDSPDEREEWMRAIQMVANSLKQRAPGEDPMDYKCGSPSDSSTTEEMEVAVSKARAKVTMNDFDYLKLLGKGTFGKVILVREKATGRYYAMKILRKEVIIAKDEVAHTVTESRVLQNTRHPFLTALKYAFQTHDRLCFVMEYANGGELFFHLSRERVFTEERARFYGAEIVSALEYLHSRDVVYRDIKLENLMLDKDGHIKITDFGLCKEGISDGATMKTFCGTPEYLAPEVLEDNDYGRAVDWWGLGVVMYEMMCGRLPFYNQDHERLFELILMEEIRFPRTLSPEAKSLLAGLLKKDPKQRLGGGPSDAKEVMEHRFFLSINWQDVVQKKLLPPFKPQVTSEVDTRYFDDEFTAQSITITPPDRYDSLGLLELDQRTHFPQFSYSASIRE
assay explanation: Phospho-Akt cellular SureFire assay, p-Akt2 in WM115 cells
Format: cell-based
condition info: insulin stimulated, read-out: Biological Assay 2 IC50 (nM) Akt2 WM115
recorded metric: IC50

1) CC(=O)N(C)[C@H]1CC[C@H](CC(=O)Nc2cnc(-c3ccc(C4(N)CCC4)cc3)c(-c3ccccc3)c2)CC1 [Example 10] ... 970 nM
2) CC(=O)N(C)[C@H]1CC[C@H](CC(=O)Nc2cc(-c3ccsc3)c(-c3ccc([C@]4(N)C[C@H](F)C4)cc3)nn2)CC1 [Example 75] ... 3200 nM
3) C[C@]1(O)C[C@@](N)(c2ccc(-c3ncc(NC(=O)C[C@H]4CC[C@H](N5CCOCC5)CC4)cc3-c3ccccc3)cc2)C1 [Example A15] ... 810 nM
4) CC(=O)N(C)[C@H]1CC[C@H](CC(=O)Nc2cc(-c3ccsc3)c(-c3ccc([C@]4(N)C[C@](C)(O)C4)cc3)cn2)CC1 [Example 93] ... 520 nM
5) CCC(=O)N(C)[C@H]1CC[C@H](CC(=O)Nc2cc(-c3ccsc3)c(-c3ccc(C(C)(C)N)cc3)nn2)CC1 [Example 88] ... 16000 nM
6) CC(=O)N(C)[C@H]1CC[C@H](CC(=O)Nc2cnc(-c3ccc([C@]4(N)C[C@H](F)C4)cc3)c(-c3ccccc3)c2)CC1 [Example 32] ... 1400 nM

---

// IC50 lookup, one value per entry
target of assay: Akt1 (Homo sapiens)
Construct: unspecified tag, removed (detagged) (cleaved yes); purchased SignalChem and Proteros (Akt1); Merck Millipore (PDK1) 14-452 (PDK1); none given for Akt1
Sequence (P31749 whole entry): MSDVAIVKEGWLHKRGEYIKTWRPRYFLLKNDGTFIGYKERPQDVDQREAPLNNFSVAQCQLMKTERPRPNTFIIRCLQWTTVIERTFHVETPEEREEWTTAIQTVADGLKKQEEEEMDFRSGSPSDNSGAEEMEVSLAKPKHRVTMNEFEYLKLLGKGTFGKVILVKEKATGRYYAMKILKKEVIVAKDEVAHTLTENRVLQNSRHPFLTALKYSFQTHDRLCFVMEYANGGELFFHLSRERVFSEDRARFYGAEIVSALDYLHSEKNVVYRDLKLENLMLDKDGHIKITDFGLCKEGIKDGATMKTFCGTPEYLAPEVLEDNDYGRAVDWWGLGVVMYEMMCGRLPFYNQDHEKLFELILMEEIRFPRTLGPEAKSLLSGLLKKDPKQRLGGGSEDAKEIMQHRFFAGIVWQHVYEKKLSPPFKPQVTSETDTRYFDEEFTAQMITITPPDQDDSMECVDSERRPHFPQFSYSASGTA
assay explanation: Akt activation assay (PDK1-mediated activation, LANCE Ultra crosstide TR-FRET), Akt1
Format: biochemical
condition info: read-out: Biological Assay 1 IC50 (nM) Akt1
recorded metric: IC50 (nM)

1. CCCC(=O)N[C@H]1CC[C@H](CC(=O)Nc2cnc(-c3ccc(C4(N)CC4)cc3)c(-c3ccccc3)c2)CC1 ... 11000
2. CCC(=O)N(C)[C@H]1CC[C@H](CC(=O)Nc2cc(-c3ccccc3)c(-c3ccc([C@]4(N)C[C@](C)(O)C4)cc3)nn2)CC1 ... 2100

---

// IC50 lookup, one value per entry
target of assay: p-Akt3 in WM115 cells (Homo sapiens)
Construct: SureFire assays to detect cellular p-Akt1, p-Akt2 and p-Akt3 levels in WM115 cells (Akt2/3) and LNCaP cells (Akt1); endogenous in cells; host or cells: WM115 (ECACC 91061232), insulin-stimulated
assay explanation: Phospho-Akt cellular SureFire assay, p-Akt3 in WM115 cells
Assay type: cell-based
condition info: insulin stimulated, read-out: Biological Assay 2 IC50 (nM) Akt3 WM115
recorded metric: IC50 (nM)

1. CC(=O)N(C)[C@H]1CC[C@H](CC(=O)Nc2cnc(-c3ccc(C4(N)CCC4)cc3)c(-c3ccccc3F)c2)CC1 ... 45
2. NC1(c2ccc(-c3ncc(NC(=O)C[C@H]4CC[C@H](N5CCCCC5=O)CC4)cc3-c3ccsc3)cc2)CCC1 ... 80
3. COC(=O)N[C@H]1CC[C@H](CC(=O)Nc2cc(-c3ccccc3)c(-c3ccc([C@]4(N)C[C@](C)(O)C4)cc3)cn2)CC1 ... 15
4. NC1(c2ccc(-c3ncc(NC(=O)C[C@H]4CC[C@H](N5CCOC5=O)CC4)cc3-c3ccccc3)cc2)CCC1 ... 51
5. CC(=O)N(C)[C@H]1CC[C@H](CC(=O)Nc2cc(-c3ccccc3)c(-c3ccc([C@]4(N)C[C@](C)(O)C4)c(F)c3)cn2)CC1 ... 29
6. CC(=O)N(C)[C@H]1CC[C@H](CC(=O)Nc2cnc(-c3ccc(C4(N)CC(C)(O)C4)c(F)c3)c(-c3ccccc3)c2)CC1 (stereo partly drawn) ... 27

---

target of assay: Akt3 (Homo sapiens)
Construct: unspecified tag, removed (detagged) (cleaved yes); purchased SignalChem and Proteros (Akt3); Merck Millipore (PDK1) 14-452 (PDK1); none given for Akt3
Sequence (Q9Y243 whole entry): as the sequence (Q9Y243 whole entry) above
assay explanation: Akt activation assay (PDK1-mediated activation, LANCE Ultra crosstide TR-FRET), Akt3
Assay type: biochemical
condition info: read-out: Biological Assay 1 IC50 (nM) Akt3
// IC50 lookup, one value per entry
recorded metric: IC50

1) CCC(=O)N(C)[C@H]1CC[C@H](CC(=O)Nc2cc(-c3ccsc3)c(-c3ccc([C@]4(N)C[C@](C)(O)C4)cc3)cn2)CC1 ... 17 nM
2) CC(=O)N(C)[C@H]1CC[C@H](CC(=O)Nc2cc(-c3ccccc3)c(-c3ccc([C@]4(N)C[C@](C)(O)C4)c(F)c3)cn2)CC1 ... 68 nM
3) CC(C)C(=O)N(C)[C@H]1CC[C@H](CC(=O)Nc2cnc(-c3ccc([C@]4(N)C[C@](C)(O)C4)cc3)c(-c3ccccc3)c2)CC1 ... 6 nM
4) CC(=O)N(C)[C@H]1CC[C@H](CC(=O)Nc2cnc(-c3ccc(C(C)(C)N)cc3)c(-c3ccccc3F)c2)CC1 ... 150 nM
5) CCC(=O)N(C)[C@H]1CC[C@H](CC(=O)Nc2cc(-c3ccccc3)c(-c3ccc(C4(N)CC4)cc3)cn2)CC1 ... 69 nM
6) NC1(c2ccc(-c3ncc(NC(=O)C[C@H]4CC[C@H](N5CCOCC5)CC4)cc3-c3ccccc3)cc2)CC(F)(F)C1 ... 1400 nM
7) NC1(c2ccc(-c3ncc(NC(=O)C[C@H]4CC[C@H](NC(=O)C5CC5)CC4)cc3-c3ccccc3)cc2)CCC1 ... 15 nM
8) CCOC(=O)N(C)[C@H]1CC[C@H](CC(=O)Nc2cc(-c3ccccc3)c(-c3ccc(C4(N)CC4)cc3)nn2)CC1 ... 57 nM
9) COC(=O)N(C)[C@H]1CC[C@H](CC(=O)Nc2cc(-c3ccccc3)c(-c3ccc(C(C)(C)N)cc3)nn2)CC1 ... 100 nM
10) CC(=O)N(C)[C@H]1CC[C@H](CC(=O)Nc2cnc(-c3ccc([C@H](N)C(F)F)cc3)c(-c3ccccc3)c2)CC1 ... 630 nM
11) CCOC(=O)N(C)[C@H]1CC[C@H](CC(=O)Nc2cnc(-c3ccc([C@]4(N)C[C@](C)(O)C4)cc3)c(-c3ccccc3)c2)CC1 ... 5 nM
12) COC(=O)N(C)[C@H]1CC[C@H](C(F)C(=O)Nc2cnc(-c3ccc(C4(N)CCC4)cc3)c(-c3ccccc3)c2)CC1 (relative stereo) ... 92 nM
13) NC1(c2ccc(-c3nnc(NC(=O)C[C@H]4CC[C@H](N5CCOC5=O)CC4)cc3-c3ccccc3)cc2F)CC1 ... 140 nM
